Values compiled from ChEMBL document CHEMBL5053556.

# protocol details: Oral bioavailability in Sprague-Dawley rat at 15 mg/kg measured after 48 hrs by LC-MS analysis
# Assay type: ADME, organism-based
# measurement conditions: in vivo
measured metric: bioavailability (%)
Numbers only, in %.

>  <line notation>
C/C(O)=C(\C#N)C(=O)Nc1cc(O[C@@H](C)C(F)(F)F)c(C(=O)Nc2c(F)cccc2Cl)cc1F

>  <measured metric>
bioavailability

>  <observed value>
32.8

$$$$

Please turn your attention to the following entry.
For `C/C(O)=C(\C#N)C(=O)Nc1cc(O[C@@H](C)C(F)(F)F)c(C(=O)Nc2c(F)cccc2F)cc1F` , what is its reported bioavailability?
31.1
